- Assay system: T1, LRP2 CR89 (UniProt P98164 1025-1102, limits assumed)
- T1 construct: domain: CR89
- T1 sequence (P98164 1025-1102 limits assumed): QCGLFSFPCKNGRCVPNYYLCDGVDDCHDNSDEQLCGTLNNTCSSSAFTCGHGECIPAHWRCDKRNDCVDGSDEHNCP
- Experimental protocol: solid-phase binding, OD at highest concentration against highest OD of all ligands
Result type: % max (percent of maximum binding) (%)

| Binder | Unit info | % max (percent of maximum binding) |
| --- | --- | --- |
| RAP d3 K256A, K270E (ligand, also called RAP K256A, K270E) GLDRLRRVSHQGYSTEAEFEEPRVIDLWDLAQSANLTDKELEAFREELKHFEAKIEAHNHYQKQLEIAHEELRHAESVGDGERVSRSREKHALLEGRTKELGYTVKKHLQDLSGRISRARHNEL | % | 3 |
| MegaRAP1 d3 A256K (ligand, also called MegaRAP1 A256K) GLDRLRRVSHQGYTTEAKFEEPRVIDLWDLAQSANLTDKELEAFREELKYFKAKIEKHNHYQKQLEIAHEELRHAESVGDGERVSRSREKHALLEGRTKELGYTVKKHLQDLSGRISRARHNEL | % | 2 |
| RAP d3 H249Y (ligand, also called RAP H249Y) GLDRLRRVSHQGYSTEAEFEEPRVIDLWDLAQSANLTDKELEAFREELKYFEAKIEKHNHYQKQLEIAHEKLRHAESVGDGERVSRSREKHALLEGRTKELGYTVKKHLQDLSGRISRARHNEL | % | 2 |
| RAP d3 (ligand, also called recombinant RAP d3) GLDRLRRVSHQGYSTEAEFEEPRVIDLWDLAQSANLTDKELEAFREELKHFEAKIEKHNHYQKQLEIAHEKLRHAESVGDGERVSRSREKHALLEGRTKELGYTVKKHLQDLSGRISRARHNEL | % | 5 |
| MegaRAP1 d3 K251E, E270K (ligand, also called MegaRAP1 K251E, E270K) GLDRLRRVSHQGYTTEAKFEEPRVIDLWDLAQSANLTDKELEAFREELKYFEAKIEAHNHYQKQLEIAHEKLRHAESVGDGERVSRSREKHALLEGRTKELGYTVKKHLQDLSGRISRARHNEL | % | 16 |

(a) MegaRAP1 d3 Y249H (ligand, also called MegaRAP1 Y249H) GLDRLRRVSHQGYTTEAKFEEPRVIDLWDLAQSANLTDKELEAFREELKHFKAKIEAHNHYQKQLEIAHEELRHAESVGDGERVSRSREKHALLEGRTKELGYTVKKHLQDLSGRISRARHNEL
(b) RAP d3 E217K (ligand, also called RAP E217K) GLDRLRRVSHQGYSTEAKFEEPRVIDLWDLAQSANLTDKELEAFREELKHFEAKIEKHNHYQKQLEIAHEKLRHAESVGDGERVSRSREKHALLEGRTKELGYTVKKHLQDLSGRISRARHNEL
Given the listed records, identify the one among a and b with higher % max (percent of maximum binding). Field: selected label. Fill in the label of the entry you choose.
a
